B1: EEHEE_rd4_0469 (parent)
chain: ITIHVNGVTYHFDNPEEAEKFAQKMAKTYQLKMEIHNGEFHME

Variants of: B1
Assay: folding stability dG (cDNA display proteolysis); higher = more stable
Settings: PBS, room temperature
// thresholds for folding stability dG classes: label 0 (below 4 kJ/mol), label 1 (4 kJ/mol to below 5 kJ/mol), label 2 (5 kJ/mol or more)

These solved cases illustrate the format of a correct answer.
variant.key	category.label
F12M	label 0
D13M	label 1
M33T	label 0
T2A	label 1
Q23K	label 1

For Q23M , which folding stability dG bin applies? label 2

Assign a bin to K27S label 1

Pick a category. Item: I3Y label 0

Hello team, could you let me know which band the following variant falls into: H41T label 0

Sort into band: F12G label 0

Which band does N14V fall in? label 1

Could you place I35H in its proper category? Many thanks. label 0

For the record M25F , report the class its folding stability dG corresponds to. label 0
